# Tested on: HCT-15 colon
# assay protocol: NCI-60 one-dose screen, 48 h
# condition parameters: 10 µM unless noted
The panel holds about 83,000 compounds, 20% with a hit somewhere; the sample as a whole holds those more often. Activity calls are given as the source filed them. How the source made its calls: active means growth percent below 10; inactive means the rest.
Respond with a class label; see active, inactive

Recorded results for 7 compounds are shown here.
In [3]: df
Out[3]:
                                   compound        target     label
0                            Brc1ccc(Br)nn1  HCT-15 colon    active
1                           CCCC1=NNC(=O)C1  HCT-15 colon  inactive
2  O=S(=O)(Nc1ccc(Cl)c(Cl)c1)c1ccc(-c2cnc(C3CC3)o2)cc1  HCT-15 colon  inactive
3  O=[N+]([O-])c1ccc2nc(N/N=C/c3ccc(O)cc3)sc2c1  HCT-15 colon  inactive
4  Cc1nc2cc(Nc3nc(NCCO)nc(Nc4ccc(F)cc4)n3)ccc2n1Cc1ccccc1  HCT-15 colon  inactive
5    O=C1C=CC(=O)N1CCCCCCCCCCN1C(=O)C=CC1=O  HCT-15 colon  inactive
6  COc1ccc(C2SC(C)C(=O)N2CCc2cccs2)cc1OC (stereo not drawn)  HCT-15 colon  inactive

Please find the next compound below.
Query string: State the result this test recorded for Cc1cc(Cl)c2c(Cl)ccc(Cl)c2n1 .
Result string: inactive
